// provenance: patent US11873298B2

- system name: SCD1 (Homo sapiens, UniProt O00767)
- Construct: host or cells: S. cerevisiae ole1Δ strain (W303 pdr1Δ pdr3Δ background), plasmid pRS316 with TDH3 promoter and CYC1 terminator
- Sequence (O00767 whole entry): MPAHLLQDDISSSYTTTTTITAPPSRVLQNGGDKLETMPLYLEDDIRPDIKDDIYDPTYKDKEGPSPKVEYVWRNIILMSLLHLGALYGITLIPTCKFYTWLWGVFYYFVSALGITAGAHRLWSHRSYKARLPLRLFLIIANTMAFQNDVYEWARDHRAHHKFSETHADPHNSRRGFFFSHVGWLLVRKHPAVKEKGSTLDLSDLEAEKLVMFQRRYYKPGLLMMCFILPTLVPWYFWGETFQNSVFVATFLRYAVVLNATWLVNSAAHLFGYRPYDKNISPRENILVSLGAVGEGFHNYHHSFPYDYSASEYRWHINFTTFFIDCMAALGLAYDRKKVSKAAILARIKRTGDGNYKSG
- assay details: Growth inhibition of humanized yeast strain expressing SCD1 as sole desaturase
- Type: cell-based
- measurement context: humanized yeast strain, 40 h
pIC50: −log10 of the molar value.
quantity name: pIC50

>>> result("CC(C)(C)OC(=O)N1CCC(c2noc(-c3cc(F)cc(N4CCOCC4)c3)n2)CC1")
"< 4.35"
>>> result("CC(C)n1ncc2cnc(-c3cc(C4CCN(C(=O)OC(C)(C)C)CC4)on3)cc21")
4.60
>>> result("O=C(C1CC1)N1CCN(c2noc(-c3ccnc(NC4COC4)c3)n2)CC1")
"< 4.35"

Kindly review the next compound as well.
Input line: What pIC50 value was documented for this compound, `COC(=O)N1CCC(c2nc(-c3ccc4cnn(C5CN(C(=O)OC(C)(C)C)C5)c4c3)no2)CC1` ?
Output line: < 4.35
